# Test system: A549-ACE2
# RUN_DESCRIPTION: drug-induced phospholipidosis relative to tamoxifen; higher = more phospholipidosis
# MEASUREMENT_CONTEXT: 0.3 µM; 24 h
MEASURED_ENDPOINT: drug-induced phospholipidosis (%)
Answers are plain numbers, in %.

Example results:
{"COMPOUND": "CC[C@@H](C)CNCC(=O)N1CCc2sccc2[C@@H]1COc1cccc(C)c1", "drug-induced phospholipidosis (%)": 2.31}
{"COMPOUND": "CCN(CC)CCOc1ccc2c(c1)C(=O)c1cc(OCCN(CC)CC)ccc1-2", "drug-induced phospholipidosis (%)": -3.79}
{"COMPOUND": "Cc1ncc(NC(=O)c2ccc(CN3CCN(C)CC3)c(C(F)(F)F)c2)cc1Nc1nccc(-c2cccnc2)n1", "drug-induced phospholipidosis (%)": 4.03}

Need drug-induced phospholipidosis for each of these compounds.
1. Clc1ccc(N/N=C(\c2ccccc2)c2ccccn2)nc1
2. CCOc1ccc(-c2nc(-c3cccc4c3CCC4NCCO)no2)cc1OCC (stereo not given)

Response line:
1. 4.18
2. 3.28

----------
# System: U2OS
# RUN_DESCRIPTION: cell viability relative to DMSO; higher = less toxic
# MEASUREMENT_CONTEXT: 72 h; 1000 nM
MEASURED_ENDPOINT: cell viability (%)
Answers are plain numbers, in %.

Value sought for every listed molecule: cell viability.
1. Oc1ccc(-c2nc(-c3ccc(F)cc3)c(-c3ccncc3)[nH]2)cc1
2. C[C@@]1(O)[C@H](O)[C@@H](CO)O[C@H]1n1cnc2c(NC3CCCC3)nc(Cl)nc21 [2'-MeCCPA]
3. NC1CCN(c2nc3c(cc2F)c(=O)c(C(=O)O)cn3-c2ccc(F)cc2F)C1 (centres undefined) [tosufloxacin]

Response line:
[98.1, 99.6, 102]

----------
# Tested on: Vero E6
# RUN_DESCRIPTION: cell viability relative to DMSO; higher = less toxic
# MEASUREMENT_CONTEXT: 72 h; 10000 nM
For each record, write down the corresponding cell viability.
Numbers only, in %.

{"GIVEN_SMILES": "CCNC(=O)[C@H]1O[C@@H](n2cnc3c(N)ncnc32)[C@H](O)[C@@H]1O", "cell viability [%]": 94.4}
{"GIVEN_SMILES": "C=CC(=O)c1ccc2ccccc2c1", "cell viability [%]": 101}
{"GIVEN_SMILES": "COc1ccc(C(=O)c2c(C)n(CCN3CCOCC3)c3ccccc23)cc1", "cell viability [%]": 95.7}
{"GIVEN_SMILES": "COc1ncc(-c2ccc3c(Nc4cc(Oc5cc(F)cc(F)c5)cc(C(=O)O)c4)c(S(=O)(=O)NC4CC4)cnc3c2)c(OC)n1", "cell viability [%]": 101}
{"GIVEN_SMILES": "Oc1cc2c(cc1O)[C@@H]1c3ccc(O)c(O)c3OC[C@]1(O)C2", "cell viability [%]": 102}

Would you mind listing cell viability for each of the following molecules?
1. Nc1nc(OCc2ccccc2)c2nc[nH]c2n1
2. CNc1ncc2cc(-c3cc(NC(=O)NCCC(C)(C)C)c(F)cc3C)c(C)nc2n1
3. Clc1cccc(/C=N/N=C/c2cccc(Cl)c2)c1
4. O=C(N[C@@H](Cc1c[nH]c2ccccc12)C(=O)O)c1ccc(Cl)cc1

Response line:
1. 90.4
2. 22.3
3. 99.5
4. 107

----------
# Tested on: A549-ACE2 infected with SARS-CoV-2
# RUN_DESCRIPTION: cell count relative to DMSO; higher = less toxic
# MEASUREMENT_CONTEXT: 0.3 µM; 24 h
MEASURED_ENDPOINT: cell count (%)
Give bare numbers, in %.

Take a look at these entries with their results.
{"COMPOUND": "CN(C)c1ccccc1CN1CCCN(Cc2ccccc2N(C)C)C1c1ccncc1", "cell count, %": 95}
{"COMPOUND": "CCN(CC)CCOC(=O)C1(C2CCCCC2)CCCCC1", "cell count, %": 97}
{"COMPOUND": "CCOc1ccc(-c2nc(-c3cccc4c3CCC4NCCO)no2)cc1OCC (stereo unspecified)", "cell count, %": 100}
{"COMPOUND": "Cc1c(-c2ccc(O)cc2)n(Cc2ccc(OCCN3CCCCCC3)cc2)c2ccc(O)cc12", "cell count, %": 105}
{"COMPOUND": "CCN(CC)CCOc1ccc2c(c1)C(=O)c1cc(OCCN(CC)CC)ccc1-2", "cell count, %": 106}

Lookup result for "Nc1nc(N)c(N=O)c(OCC2CCCCC2)n1" ; measured cell count: 100

----------
# Test system: Caco-2
# RUN_DESCRIPTION: cell viability relative to DMSO; higher = less toxic
# MEASUREMENT_CONTEXT: 72 h; 100 nM
Kindly state cell viability for each of the entries shown.
Numbers only, in %.

Before answering, review these 6 worked examples.
{"COMPOUND": "CN1CC(=O)N=C1NC(=O)Nc1cccc(Cl)c1", "MEASUREMENT": 90.1}
{"COMPOUND": "CC(C)(C)c1cc(C=C(C#N)C#N)cc(C(C)(C)C)c1O", "MEASUREMENT": 95.8}
{"COMPOUND": "COc1cc2c(Nc3ccc(NC(=O)c4ccccc4)cc3)ncnc2cc1OCCCN1CCOCC1", "MEASUREMENT": 106}
{"COMPOUND": "N[C@@]1(C(=O)O)CC[C@H]2[C@H](C(=O)O)[C@H]21", "MEASUREMENT": 93.8}
{"COMPOUND": "CC(=O)OCC1=C(C(=O)O)N2C(=O)[C@@H](N)[C@H]2SC1", "MEASUREMENT": 102}
{"COMPOUND": "N#Cc1ccc(N(Cc2ccc(Br)cc2)n2cnnc2)cc1", "MEASUREMENT": 94.1}

Quick batch: cell viability for everything below.
1. Clc1ccc([C@]23CNC[C@H]2C3)cc1Cl
2. CCNC(=O)[C@H]1O[C@@H](n2cnc3c(N)ncnc32)[C@H](O)[C@@H]1O
3. Cc1ccc(S(=O)(=O)N2CCC[C@H]2c2ccc(F)cc2)cc1
4. CC(N)Cc1c[nH]c2ccc(OCc3cccs3)cc12 (stereo not given)

Response line:
1. 103
2. 110
3. 102
4. 93

----------
# Test system: Calu-3
# RUN_DESCRIPTION: cell viability relative to DMSO; higher = less toxic
# MEASUREMENT_CONTEXT: 72 h; 1 nM
MEASURED_ENDPOINT: cell viability (%)
Numbers only, in %.

{"COMPOUND": "COc1ccccc1N1CCN(CCN2C(=O)c3ccccc3C(C)(C)C2=O)CC1", "cell viability, %": 105}

Working through the 4 compounds below one at a time, give cell viability for each.
1. O=C(Nc1c(Cl)cncc1Cl)c1ccc(OC(F)F)c(OCC2CC2)c1
2. CSc1ccc2c(c1)N(CCC1CCCCN1C)c1ccccc1S2 (stereo not given)
3. C[C@@H]1COCCN1c1cc(C2([S@](C)(=N)=O)CC2)nc(-c2ccnc3[nH]ccc23)n1
4. C[C@@H]1CCCN1CCc1cc2cc(-c3ccc(C#N)cc3)ccc2o1

Response line:
1: 89.1; 2: 104; 3: 92.8; 4: 95.5

----------
Assignment: determine reported cell viability for the given compounds.
# Tested on: Caco-2
# RUN_DESCRIPTION: cell viability relative to DMSO; higher = less toxic
# MEASUREMENT_CONTEXT: 72 h; 10000 nM
One number for each entry, in %.

Guide cases for cell viability, answers given:
{"COMPOUND": "COc1ccc(C(C)(C)C)cc1CN[C@H]1C2CCN(CC2)[C@H]1C(c1ccccc1)c1ccccc1", "TARGET_OR_SYSTEM": "Caco-2", "MEASURED_ENDPOINT": "cell viability", "UNITS_OF_MEASURE": "%", "MEASUREMENT": 67.4}
{"COMPOUND": "CCCC[P+](CCCC)(CCCC)Cc1ccc(NC(=O)[C@H](Cc2ccc3ccccc3c2)N/C(=N/C2CCCCC2)NC2CCCCC2)cc1", "TARGET_OR_SYSTEM": "Caco-2", "MEASURED_ENDPOINT": "cell viability", "UNITS_OF_MEASURE": "%", "MEASUREMENT": 81.4}
{"COMPOUND": "O=C(O)COCCN1CCN(C(c2ccccc2)c2ccc(Cl)cc2)CC1 (stereo unspecified)", "TARGET_OR_SYSTEM": "Caco-2", "MEASURED_ENDPOINT": "cell viability", "UNITS_OF_MEASURE": "%", "MEASUREMENT": 107}
{"COMPOUND": "Cc1c(CN(C)C(=O)/C=C/c2cnc3c(c2)CCC(=O)N3)oc2ccccc12", "TARGET_OR_SYSTEM": "Caco-2", "MEASURED_ENDPOINT": "cell viability", "UNITS_OF_MEASURE": "%", "MEASUREMENT": 97.1}
{"COMPOUND": "OCC(CO)N[C@H]1C[C@](O)(CO)[C@@H](O)[C@H](O)[C@H]1O", "TARGET_OR_SYSTEM": "Caco-2", "MEASURED_ENDPOINT": "cell viability", "UNITS_OF_MEASURE": "%", "MEASUREMENT": 106}

Can you give me cell viability for all of these, one by one?
1. Cc1cccc(Nc2cc(Cl)nc(SCC(=O)O)n2)c1C
2. N[C@@]1(C(=O)O)CC[C@H]2[C@H](C(=O)O)[C@H]21
3. N[C@@H](C(=O)O)c1ccc(C(=O)O)c(O)c1 (racemic) [4-carboxy-3-hydroxyphenylglycine-(RS)]
4. CC(C)(C)C(=O)NCCCC(=O)O
5. O=C(NS(=O)(=O)c1ccc(Br)s1)c1ccc(Cl)cc1Cl

Response line:
[87.2, 97.2, 103, 92.2, 92]

Your task in this section: give cell viability for each listed record.
1. CC(=O)OCC1=C(C(=O)O)N2C(=O)[C@@H](N)[C@H]2SC1
2. Clc1ccc([C@]23CNC[C@H]2C3)cc1Cl
3. CSc1ccc(C(=O)/C=C/c2cc(C)c(OC(C)(C)C(=O)O)c(C)c2)cc1

Response line:
1. 100
2. 95.8
3. 84.6

# return cell viability for each item in the list
1. COc1cc([C@@H]2c3cc4c(cc3[C@@H](O[C@@H]3O[C@@H]5CO[C@@H](C)O[C@H]5[C@H](O)[C@H]3O)[C@H]3COC(=O)[C@H]23)OCO4)cc(OC)c1OP(=O)(O)O [etoposide-phosphate]
2. CN(C)c1ccccc1CN1CCCN(Cc2ccccc2N(C)C)C1c1ccncc1
3. O=C1CCC(N2C(=O)c3ccccc3C2=O)C(=O)N1 (stereo unspecified) [thalidomide]
4. C[C@@H](O[C@H]1OCCN(Cc2n[nH]c(=O)[nH]2)[C@H]1c1ccc(F)cc1)c1cc(C(F)(F)F)cc(C(F)(F)F)c1 [aprepitant]
5. Cc1nc2n(c(=O)c1CCN1CCC(c3noc4cc(F)ccc34)CC1)CCCC2O (stereo unspecified)
6. COc1cc(Br)c(S(=O)(=O)Nc2ccc(C(F)(F)F)c(O[C@@H]3CCN(C)C3)c2)cc1OC
7. O=C(O)c1ccc(CN2CCC(CN[C@@H]3C[C@H]3c3ccccc3)CC2)cc1

Response line:
107
95.9
94.9
89.2
118
95.9
102
